Listing: melting point of selected compounds

Please review the entries below; each comes with its answer.
INSERT INTO assay_data (compound, measure, recorded_result) VALUES
  ('Cc1cccc(C)c1NC(=O)CN1CCCC1=O', 'melting point', '153 to 154 °C'),
  ('CSc1nc(O)c(-c2ccc(C)cc2)c(O)n1', 'melting point', '226 °C'),
  ('N#Cc1ccc(C=NO)c(Cl)c1', 'melting point', '177 to 179 °C');

For record c1ccc(-c2cccc(-c3nc4c5ccccc5ccn4n3)c2)cc1 the listed melting point is 167 to 169 °C

For record O=C1CCC(c2ccccc2)(c2ccccc2)C(C[N+](=O)[O-])C1 (racemic) the listed melting point is 164 °C

----------
Listing: melting point of selected molecules

INSERT INTO measurements (molecule, measure, recorded_result) VALUES
  ('CN(C)CCCN=C1CC(c2ccc(C(F)(F)F)cc2)Cc2c1c(=O)c1cc(Cl)ccc1n2O (stereo not given)', 'melting point', '130 to 135 °C'),
  ('CCOc1nn(-c2ccc(C(F)(F)F)cn2)cc1CCCOc1cccc(CC(=O)O)c1', 'melting point', '134 to 135 °C'),
  ('Nc1cc(OCC2=CCCSC2)c(Cl)cc1F', 'melting point', '73 to 74 °C'),
  ('CC1(C)CC(O)CC(C)(C)N1OC(=NC1CCCCC1)NC1CCCCC1', 'melting point', '157 to 161 °C');

For record Cc1noc(C)c1-c1cn(Cc2ccccc2)c(=O)c2cccnc12 the listed melting point is 192 to 195 °C

----------
Listing: melting point of selected compounds

INSERT INTO assay_data (compound, recorded_result) VALUES
  ('CC(C)(O)Cc1ccc(N)cc1', '107 to 108 °C'),
  ('CN(C)c1cccc(-c2ccc3nnn(Cc4ccc5ncccc5c4)c3n2)c1', '124 to 126 °C'),
  ('CCOC(=O)C1(NS(=O)(=O)c2ccc(F)cc2)CCCCC1', '96 to 98 °C'),
  ('FC(F)(F)Sc1ccc(C=Cc2nc(COc3ccc(CCCCn4ccnn4)cc3)co2)cc1', '144 to 145 °C'),
  ('CC(C)(C)N(O)C(=O)C1CCC(C2CCCCC2)CC1 (configuration not stated)', '119 to 120 °C');

For record CC(C)(C)OC(=O)C[C@H](NC(=O)CNC(=O)CC1(c2ccc(C(N)=S)cc2)OCCO1)C(=O)N[C@@H](Cc1ccccc1)C(=O)OC(C)(C)C the listed melting point is 96 to 98 °C

For record C[C@H]1CCCC(C)(C)[C@@H]1[C@H](O)c1ccc(OC(F)(F)F)c(F)c1 the listed melting point is 60.3 to 62.2 °C

For record CCC(=O)N[C@@H]1Cc2ccccc2N(OC)C1=O the listed melting point is 98 to 99 °C

For record CS(=O)(=O)c1ccc(-c2nn3c4c(oc3c2-c2ccc(F)cc2)COCC4)cc1 the listed melting point is 200 to 201 °C

For record C/C(=C(\C#N)C(N)=S)N1CCCN(c2ccccc2C)CC1 the listed melting point is 99 to 100 °C

For record CC(C)C1(C)N=C(c2nc3c(cc2C(=O)O)CCO3)NC1=O (configuration not stated) the listed melting point is 189 to 192 °C

For record CC1OC(C)C(C(=O)O)C1=O (configuration not stated) the listed melting point is 55 to 57 °C

For record COc1cccc2c1CC(C#N)CC2 (configuration not stated) the listed melting point is 66 to 68 °C

For record Cc1noc(NS(=O)(=O)c2ccccc2-c2ccc(-c3cccnc3)cc2)c1C the listed melting point is 96 to 106 °C

For record CC(=O)c1cccc(-c2ncc(N=CN(C)C)cn2)c1 the listed melting point is 146 to 148 °C

For record CS(=O)(=O)Nc1cc2occc(=O)c2cc1Oc1ccccc1N the listed melting point is 238 to 240 °C

For record CC(C)(C)OC(=O)NC(=N)c1ccc(C(=O)NCCC(=O)OCc2ccccc2)cc1 the listed melting point is 127 to 128 °C

For record CC(C)(C)NC(CO)c1cc(Cl)c(N)c(C(F)(F)F)c1 (configuration not stated) the listed melting point is 85 to 90 °C

For record COc1ccc(C=CC(=O)c2cc(Oc3ccccc3)c(NS(C)(=O)=O)cc2O)cc1OC the listed melting point is 210 to 212 °C

For record O=C(O)c1ccc2c(c1)S(=O)(=O)c1ccc(Cl)cc1C=C2 the listed melting point is 276 to 278 °C

For record Cc1c[nH]c(-c2cnn(-c3c(Cl)cc(C(F)(F)F)cc3Cl)n2)n1 the listed melting point is 217 to 218 °C

For record COc1cccc(C(=O)C=C(SC)SC)c1 the listed melting point is 119 to 121 °C

----------
Measure: melting point

Please review the entries below; each comes with its answer.
INSERT INTO measurements (substance_smiles, measure, recorded_result) VALUES
  ('COC(=O)c1ccc(-c2ccc(NC(=O)c3ccc(OC)c(C#CCN(C)C)c3)cc2)cc1', 'melting point', '234 to 237 °C'),
  ('O=S1(=O)NCN(CCF)c2cc(Cl)c(Br)cc21', 'melting point', '159 to 162 °C'),
  ('O=C1c2cccc3cccc(c23)C(=O)N1CCI', 'melting point', '222 to 224 °C'),
  ('Cc1c(CCNC(=O)OC(C)(C)C)c2cc(S(=O)(=O)c3ccccc3)ccc2n1C', 'melting point', '151 to 155 °C'),
  ('CN(c1cccnc1S(N)(=O)=O)S(=O)(=O)CF', 'melting point', '160 to 162 °C');

Now for the molecule whose melting point we want.
For record COc1ccnc(C(=O)c2[nH]c3cc(Cl)ccc3c2NC(=O)CC(C)C)c1 the listed melting point is 162 to 163 °C

----------
Listing: melting point of selected molecules

INSERT INTO assay_data (substance_smiles, measure, recorded_result) VALUES
  ('CCCCC(=O)c1cn(C(c2ccccc2)(c2ccccc2)c2ccccc2)cn1', 'melting point', '115 to 118 °C'),
  ('CCOC(=O)c1cn(-c2cc(C)on2)cn1', 'melting point', '142 to 143 °C'),
  ('COc1ccc2c(c1)N(C1=CCCN1C1=NCCC1)c1ccccc1S2', 'melting point', '151 to 153 °C');

For record CCCCCC(=O)NCCc1ccc(S(=O)(=O)NC(=O)c2ccc(C(=O)NCC(=O)OC)nc2)cc1 the listed melting point is 128 to 130 °C

For record Cc1onc(-c2ccc(Cl)cc2)c1CCl the listed melting point is 91 to 92 °C

----------
Measure: melting point

Please review the entries below; each comes with its answer.
INSERT INTO measurements (molecule, measure, recorded_result) VALUES
  ('O=C(O)c1ccc(C#Cc2cc(C#Cc3ccc(C(=O)O)cc3)cc(C#Cc3ccc(C(=O)O)cc3)c2)cc1', 'melting point', '218 °C'),
  ('C[C@@H](O)[C@H](NC(=O)OC(C)(C)C)C(=O)NOCc1ccccc1', 'melting point', '87 °C'),
  ('N#Cc1ccccc1-c1ccc(OCC(=O)C2CC2)cc1', 'melting point', '82 to 84 °C'),
  ('CCC[C@H]1C=C(C(=O)OCC)OC(=O)[C@H]1Cc1ccccc1', 'melting point', '77 to 81 °C'),
  ('CC(c1cc(Cl)cc([N+](=O)[O-])c1O)c1cc(Br)cc([N+](=O)[O-])c1O (stereo not given)', 'melting point', '161 °C');

Now for the molecule whose melting point we want.
For record NC(Cn1cncn1)(Cn1cncn1)c1ccc(Cl)cc1Cl the listed melting point is 135 to 136 °C

----------
Measure: melting point

Please review the entries below; each comes with its answer.
INSERT INTO results (compound, measure, recorded_result) VALUES
  ('CC(=NC1CCCCC1)Nc1ccccc1C', 'melting point', '130 to 131 °C'),
  ('CCN(C(=O)OC(C)(C)C)n1c(C)nc(N2CCc3ccccc3CC2)c(C#N)c1=O', 'melting point', '86 to 88 °C'),
  ('O=c1ccoc2c(CCCc3ccccc3)c(OCc3ccccc3)ccc12', 'melting point', '106 to 108 °C');

For record O=S(=O)(c1nc[nH]n1)c1ccc(C(F)(F)F)cc1Cl the listed melting point is 222 to 224 °C

For record CCC1c2c(C#N)ncn2-c2cnc(Nc3ccc(C(=O)NC4CCN(C5CCN(CC(C)C)CC5)CC4)cc3OC)nc2N1C(C)C (configuration not stated) the listed melting point is 165 to 170 °C

For record COc1ccc2c(C(=O)O)nn(Cc3ccc(Cl)c(Cl)c3)c(=O)c2c1 the listed melting point is 238 to 240 °C

For record CC(=O)OCC1C=CC(n2cc(F)c(N)nc2=O)O1 (configuration not stated) the listed melting point is 182 to 184 °C
